# MEASUREMENT TARGET: BRPF3 (Homo sapiens, UniProt Q9ULD4)
# Sequence (Q9ULD4 589-693 limits assumed): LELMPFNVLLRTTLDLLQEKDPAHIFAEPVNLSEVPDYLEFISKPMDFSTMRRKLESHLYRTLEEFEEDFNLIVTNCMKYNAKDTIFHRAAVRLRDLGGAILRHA
# TEST SUMMARY: BROMOscan bromodomain competitive binding assay (DiscoveRx), BRPF3
# RECORDED CONDITIONS: BROMOscan platform, n = 2
pKd: −log10 of the molar value.
PARAMETER MEASURED: pKd

Requested read-out: pKd. Entry: COc1cc2c(cc1NS(=O)(=O)c1ccc(C#N)cc1)cc(C)c(=O)n2C [Compound 22]
6.55

Requested read-out: pKd. Entry: Cn1c(=O)ccc2cc(NS(=O)(=O)c3ccccc3)ccc21 [Compound 1]
5.12

a. COc1cc2c(cc1NS(=O)(=O)c1ccc(C#N)cc1)c(C)cc(=O)n2C [Compound 33]
b. Cn1c(=O)ccc2cc(NS(=O)(=O)c3ccc(C#N)cc3)ccc21 [Compound 4]
c. Cc1cc2cc(NS(=O)(=O)c3ccc(C#N)cc3)ccc2n(C)c1=O [Compound 19]
Please list the entries, largest pKd first. Give the labels in the order specified.
c, b, a
(c: 6.59, b: 6.00, a: 5.03)

###

# MEASUREMENT TARGET: BRD1 (Homo sapiens)
# Sequence (O95696 562-666 limits assumed): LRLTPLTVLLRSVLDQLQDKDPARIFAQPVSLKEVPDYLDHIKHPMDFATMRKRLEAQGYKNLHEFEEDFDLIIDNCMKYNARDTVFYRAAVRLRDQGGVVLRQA
# TEST SUMMARY: BROMOscan bromodomain competitive binding assay (DiscoveRx), BRD1
# RECORDED CONDITIONS: BROMOscan platform, n = 2
# Procedure: Compounds were tested using the commercially available BROMOscan™ Platform (DiscoveRx): http://www.discoverx.com/technologies-platforms/competitive-binding-technology/bromoscan-technology-platform/bromoscan-assay-process. Bromodomain assays. […] The bromodomain concentration in the eluates was measured by qPCR. An 11-point 3-fold serial dilution of each test compound was prepared in 100% DMSO at 1000× final test concentration. […] Most Kds were determined using a compound top concentration=10,000 nM. […]
PARAMETER MEASURED: Kd (nM)

Consider the following illustrative entries.
Identify the measured Kd of "Cn1c(=O)ccc2cc(S(=O)(=O)Nc3ccc(C#N)cc3)ccc21" for BRD1 (Homo sapiens).
150

Identify the measured Kd of "COc1cc2c(ccc(=O)n2C)cc1NS(=O)(=O)c1ccccc1" for BRD1 (Homo sapiens).
380

1. COc1cc2c(ccc(=O)n2C)cc1NS(=O)(=O)c1ccc(C#N)cc1
2. Cn1c(=O)ccc2c(Br)c(NS(=O)(=O)c3ccc(C#N)cc3)ccc21
3. Cc1cc(=O)n(C)c2ccc(NS(=O)(=O)c3ccc(C#N)cc3)cc12
Endpoint returns the given compounds ordered by ascending Kd. Give the labels in the order specified.
3, 1, 2
(3: 150 nM, 1: 520 nM, 2: 840 nM)

###

# MEASUREMENT TARGET: BRD1 (Homo sapiens)
# TEST SUMMARY: BROMOscan bromodomain competitive binding assay (DiscoveRx), BRD1
# RECORDED CONDITIONS: BROMOscan platform, n = 2
PARAMETER MEASURED: Kd (nM)

Requested read-out: Kd. Entry: Cn1c(=O)ccc2cc(NS(=O)(=O)c3ccccc3)ccc21 [Compound 1]
1400

Requested read-out: Kd. Entry: CN(c1ccc2c(ccc(=O)n2C)c1)S(=O)(=O)c1ccc(C#N)cc1 [Compound 34]
6700

Requested read-out: Kd. Entry: COc1c(NS(=O)(=O)c2ccc(C#N)cc2)ccc2c1ccc(=O)n2C [Compound 16]
210

Requested read-out: Kd. Entry: Cc1cc2cc(NS(=O)(=O)c3ccc(C#N)cc3)ccc2n(C)c1=O [Compound 19]
48

Requested read-out: Kd. Entry: COc1cc2c(cc1NS(=O)(=O)c1ccccc1)cc(C)c(=O)n2C [Compound 21]
190

P. Cn1c(=O)ccc2cc(NS(=O)(=O)c3ccc(Cl)c(Cl)c3)ccc21 [Compound 9]
Q. CCn1c(=O)ccc2cc(NS(=O)(=O)c3ccc(C#N)cc3)ccc21 [Compound 35]
R. Cn1c(=O)ccc2cc(NS(=O)(=O)c3ccccc3C#N)ccc21 [Compound 2]
Endpoint returns the given molecules ordered by ascending Kd. Give the labels in the order specified.
P, Q, R

###

# MEASUREMENT TARGET: UniProt P55201
# TEST SUMMARY: BROMOscan bromodomain competitive binding assay (DiscoveRx), BRPF1B
# RECORDED CONDITIONS: BROMOscan platform, n = 2 unless cell says n = 4
PARAMETER MEASURED: Kd (nM)

Consider the following illustrative entries.
Requested read-out: Kd. Entry: Cn1c(=O)ccc2cc(NS(=O)(=O)C3CCCCC3)ccc21 [Compound 55]
380

Requested read-out: Kd. Entry: COc1cc2c(cc1NS(=O)(=O)c1ccc(C#N)cc1)cc(C)c(=O)n2C [Compound 22]
15

1. COc1cc2c(ccc(=O)n2C)cc1NS(=O)(=O)c1ccc(C#N)cc1 [Compound 11]
2. COc1cc2c(cc1NS(=O)(=O)c1ccc(N)cc1)cc(C)c(=O)n2C [Compound 25]
3. Cc1cc2cc(NS(=O)(=O)C3CCCCC3)ccc2n(C)c1=O [Compound 56]
4. CCS(=O)(=O)Nc1ccc2c(ccc(=O)n2C)c1 [Compound 52]
5. Cn1c(=O)ccc2c(Br)c(NS(=O)(=O)c3ccc(C#N)cc3)ccc21 [Compound 18]
Endpoint returns the given compounds ordered by ascending Kd. Give the labels in the order specified.
3, 1, 5, 2, 4

###

# MEASUREMENT TARGET: BRD1 (Homo sapiens, UniProt O95696)
# Construct: purchased DiscoveRx (BROMOscan platform); host or cells: E. coli host derived from BL21 (T7 phage)
# TEST SUMMARY: BROMOscan bromodomain competitive binding assay (DiscoveRx), BRD1
# RECORDED CONDITIONS: BROMOscan platform, n = 2
pKd: −log10 of the molar value.
PARAMETER MEASURED: pKd

Requested read-out: pKd. Entry: COc1ccccc1S(=O)(=O)Nc1ccc2c(c1)cc(C)c(=O)n2C [Compound P-001, reference compound]
6.89

I. COc1cc2c(cc1NS(=O)(=O)c1ccc(C#N)cc1)cc(C)c(=O)n2C [Compound 22]
II. Cn1c(=O)ccc2cc(NS(=O)(=O)c3ccc(C#N)cc3)ccc21 [Compound 4]
III. COc1cc2c(cc1NS(=O)(=O)c1ccc(C#N)cc1)c(C)cc(=O)n2C [Compound 33]
Please list the entries, largest pKd first. Give the labels in the order specified.
I, II, III
(I: 7.00, II: 6.70, III: 5.74)

###

# MEASUREMENT TARGET: BRPF1B (Homo sapiens, UniProt P55201)
# Sequence (P55201 628-732 limits assumed): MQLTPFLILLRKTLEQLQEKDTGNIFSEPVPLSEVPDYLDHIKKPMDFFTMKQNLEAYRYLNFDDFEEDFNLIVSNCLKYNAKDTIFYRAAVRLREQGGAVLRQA
# TEST SUMMARY: BROMOscan bromodomain competitive binding assay (DiscoveRx), BRPF1B
# RECORDED CONDITIONS: BROMOscan platform, n = 2 unless cell says n = 4
PARAMETER MEASURED: Kd (µM)

Consider the following illustrative entries.
Requested read-out: Kd. Entry: COc1ccccc1S(=O)(=O)Nc1ccc2c(c1)cc(C)c(=O)n2C [Compound P-001, reference compound]
0.009

Requested read-out: Kd. Entry: CCn1c(=O)ccc2cc(NS(=O)(=O)c3ccc(C#N)cc3)ccc21 [Compound 35]
0.047

Requested read-out: Kd. Entry: COc1cc(C#N)ccc1S(=O)(=O)Nc1cc(F)c2c(c1)cc(C)c(=O)n2C [Compound 49]
0.01

a. COc1cc(C(N)=O)ccc1S(=O)(=O)Nc1ccc2c(c1)cc(C)c(=O)n2C [Compound 62]
b. CC(C)Oc1cc2c(ccc(=O)n2C)cc1NS(=O)(=O)c1ccc(C#N)cc1 [Compound 14]
c. CC(C)S(=O)(=O)Nc1ccc2c(ccc(=O)n2C)c1 [Compound 53]
d. Cc1cc2cc(NS(=O)(=O)c3ccc(C#N)cc3)ccc2n(C)c1=O [Compound 19]
e. CCc1cc2cc(NS(=O)(=O)c3ccc(C#N)cc3OC)ccc2n(C)c1=O [Compound 45]
Please list the entries, largest Kd first. Give the labels in the order specified.
c, e, b, d, a

###

# MEASUREMENT TARGET: BRPF3 (Homo sapiens, UniProt Q9ULD4)
# TEST SUMMARY: BROMOscan bromodomain competitive binding assay (DiscoveRx), BRPF3
# RECORDED CONDITIONS: BROMOscan platform, n = 2
PARAMETER MEASURED: Kd (nM)

Identify the measured Kd of "COc1cc2c(ccc(=O)n2C)cc1NS(=O)(=O)c1ccccc1" for BRPF3 (Homo sapiens, UniProt Q9ULD4).
2200

1. COc1cc2c(ccc(=O)n2C)cc1NS(=O)(=O)c1ccc(C#N)cc1
2. COc1cc2c(cc1NS(=O)(=O)c1ccc(C#N)cc1OC)cc(C)c(=O)n2C
3. COc1cc2c(cc1NS(=O)(=O)c1ccccc1)cc(C)c(=O)n2C
Endpoint returns the given compounds ordered by ascending Kd. Give the labels in the order specified.
2, 3, 1
